Biological target: T1, substrate-binding domain of Ssc1, Ssc1(418–654) (S. cerevisiae, UniProt P0CS90 418-654)
T1 sequence (looked up): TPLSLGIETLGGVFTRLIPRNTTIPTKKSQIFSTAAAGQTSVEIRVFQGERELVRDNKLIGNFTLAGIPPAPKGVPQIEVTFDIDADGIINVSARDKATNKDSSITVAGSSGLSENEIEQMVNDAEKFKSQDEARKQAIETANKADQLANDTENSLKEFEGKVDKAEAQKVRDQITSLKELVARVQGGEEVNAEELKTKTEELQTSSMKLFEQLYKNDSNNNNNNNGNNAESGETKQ
Experiment: fluorescence polarisation
REPORTED_METRIC: Kd (nM)
Report the value in nM with no unit label.

For CALLLSAPRR (fluorescein fluorophore covalently attached to the cysteine residue) [fluorescein-labeled P5 peptide (F-P5)] , what is its reported Kd?
264

Origin of measurements: paper PMC3099715
